Cited source: the NIST ThermoML archive (doi:10.1021/je500381c)

# assay overview: refractive index (Na D-line) (dimensionless)
# protocol conditions: 313.15 K; 101.33 kPa; Liquid; Standard Abbe refractometry
property label: refractive index
Please reply with the value in numeric form only.

// known answers, use as guide
>>> df
   compound_structure_string  numeric_value
0                   CCCCCCCO         1.4156
1                 OCC1CCCCC1          1.455
2     CCC12CC3CC(CC(C3)C1)C2         1.4839
3   CC12CC3CC(C1)CC(C)(C3)C2         1.4691

// next item, refractive index requested
Qu. Tell me its refractive index given `CC12CC3CC(C)(C1)CC(C)(C3)C2` as the entry.
Ans. 1.4649

---

Form field: mass density (one value per entry).
# protocol conditions: 313.15 K; 100 kPa; Liquid; Vibrating tube method
Numbers after ± are expanded uncertainties.

In [3]: df
Out[3]:
   compound_structure_string  property_label               result
0     CCC12CC3CC(CC(C3)C1)C2    mass density  922.81 ± 0.15 kg/m3
1                 OCC1CCCCC1    mass density  915.53 ± 0.13 kg/m3
2                   CCCCCCCO    mass density  808.16 ± 0.16 kg/m3

Qu. Tell me its mass density given `CC12CC3CC(C1)CC(C)(C3)C2` as the entry.
Ans. 887.35 ± 0.12 kg/m3

Qu. Tell me its mass density given `CC12CC3CC(C)(C1)CC(C)(C3)C2` as the entry.
Ans. 873.4 ± 0.13 kg/m3

---

# assay overview: refractive index (Na D-line) (dimensionless)
# protocol conditions: 293.15 K; 101.33 kPa; Liquid; Standard Abbe refractometry
property label: refractive index
Please reply with the value in numeric form only.

// known answers, use as guide
>>> print(df.to_string())
     compound_structure_string    property_label  numeric_value
0  CC12CC3CC(C)(C1)CC(C)(C3)C2  refractive index         1.4736
1       CCC12CC3CC(CC(C3)C1)C2  refractive index         1.4927
2                   OCC1CCCCC1  refractive index         1.4629
3     CC12CC3CC(C1)CC(C)(C3)C2  refractive index         1.4776

// next item, refractive index requested
Qu. Tell me its refractive index given `CCCCCCCO` as the entry.
Ans. 1.4236

---

# protocol conditions: 333.15 K; 100 kPa; Liquid; Vibrating tube method
property label: mass density (kg/m3)
Number in kg/m3, nothing else.

// known answers, use as guide
>>> print(df.to_string())
     compound_structure_string  property_label  numeric_value
0       CCC12CC3CC(CC(C3)C1)C2    mass density         908.41
1                     CCCCCCCO    mass density         793.52
2     CC12CC3CC(C1)CC(C)(C3)C2    mass density         873.01
3  CC12CC3CC(C)(C1)CC(C)(C3)C2    mass density          859.2

Qu. Tell me its mass density given `OCC1CCCCC1` as the entry.
Ans. 900.67
